Would you kindly list Papp for each of these compounds?
Assay: Parallel artificial membrane permeability assay (PAMPA) for BBB permeability
Numbers only, in ×10⁻⁶ cm/s.

A selection of reference data follows.
>>> meas_value("COc1cc(OC)c(C(=O)/C=C/c2ccc(Cl)cc2)c(OC)c1")
13.2
>>> meas_value("COc1ccc(C(=O)/C=C/c2ccc(F)cc2)c(OC)c1OC")
15.2
>>> meas_value("COc1ccc(C(=O)/C=C/c2ccc(Br)cc2)c(OC)c1OC")
15.7

Report Papp for each item below.
1. COc1cc(OC)c(C(=O)/C=C/c2ccc(Br)cc2)c(OC)c1
2. COc1cc(OC)c(C(=O)/C=C/c2ccc(F)cc2)c(OC)c1
3. COc1ccc(C(=O)/C=C/c2ccc(Cl)cc2)c(OC)c1OC

Result block:
[14.1, 15.3, 14.6]

The reported measurements were obtained from paper PMC8226672.
